System: PSMA + PC-3 PiP and PSMA − PC-3 flu tumor xenografts
Settings: 1 H post-injection
measurement-name: Biodistribution: lung (% ID/g)

{"compound": "N=C(N)NCc1ccc(C(=O)NCCCCC(NC(=O)CCCCCCC(=O)NCCCC[C@H](NC(=O)N[C@@H](CCC(=O)O)C(=O)O)C(=O)O)C(=O)O)cc1[131I] (some centres unmarked) [[^131I] labeled PSMA-904]", "measurement-target": "PSMA + PC-3 PiP and PSMA − PC-3 flu tumor xenografts", "result-number": 1.39}
{"compound": "O=C(O)CC[C@H](NC(=O)N[C@@H](CCC(=O)NCCc1ccc([131I])cc1)C(=O)O)C(=O)O [[^131I]HS-549]", "measurement-target": "PSMA + PC-3 PiP and PSMA − PC-3 flu tumor xenografts", "result-number": 4.60}
{"compound": "O=C(O)CC[C@H](NC(=O)N[C@@H](CCC(=O)NCCc1ccc([211At])cc1)C(=O)O)C(=O)O [[^211At]HS-549]", "measurement-target": "PSMA + PC-3 PiP and PSMA − PC-3 flu tumor xenografts", "result-number": 9.77}
{"compound": "N=C(N)NCc1ccc(C(=O)NCCCC[C@H](NC(=O)N[C@@H](CCC(=O)O)C(=O)O)C(=O)O)cc1[131I] [[^131I] labeled 7 (PSMA-620)]", "measurement-target": "PSMA + PC-3 PiP and PSMA − PC-3 flu tumor xenografts", "result-number": 3.29}
{"compound": "N=C(N)NCc1ccc(C(=O)NCCCCC(NC(=O)CCCCCCC(=O)NCCCC[C@H](NC(=O)N[C@@H](CCC(=O)O)C(=O)O)C(=O)O)C(=O)O)cc1[211At] (some centres unmarked) [[^211At] labeled PSMA-904]", "measurement-target": "PSMA + PC-3 PiP and PSMA − PC-3 flu tumor xenografts", "result-number": 2.24}
{"compound": "O=C(O)CC[C@H](NC(=O)N[C@@H](CSCc1ccc([125I])cc1)C(=O)O)C(=O)O [[^125I] labeled DCIBC]", "measurement-target": "PSMA + PC-3 PiP and PSMA − PC-3 flu tumor xenografts", "result-number": 2.2}
{"compound": "O=C(O)CC[C@H](NC(=O)NC(CCCCNC(=O)c1ccc([211At])cc1)C(=O)O)C(=O)O (some centres unmarked) [[^211At]YC-I-27]", "measurement-target": "PSMA + PC-3 PiP and PSMA − PC-3 flu tumor xenografts", "result-number": 5.82}
{"compound": "O=C(O)CC[C@H](NC(=O)N[C@@H](CCCCNC(=O)c1ccc([131I])cc1)C(=O)O)C(=O)O [[^131I]YC-I-27]", "measurement-target": "PSMA + PC-3 PiP and PSMA − PC-3 flu tumor xenografts", "result-number": 4.67}
